assay: Toxicity in rat FAO cells assessed as reduction in cell proliferation incubated for 48 hrs by crystal violet staining based assay
assay_endpoint: IC50 at 48 h

Here's what some known entries look like.
record_smiles=Cc1ccc(Oc2ccc(CNC(=O)c3c(F)cnn3C)cc2)cc1 assay_endpoint="IC50 at 48 h" endpoint_value="< 6 µM"
record_smiles=Cn1ncc(Cl)c1C(=O)NCc1ccc(Oc2ccc(Cl)nc2)cc1 assay_endpoint="IC50 at 48 h" endpoint_value="< 6 µM"
record_smiles=CCc1nn(C)c(C(=O)NCc2ccc(Oc3ccc(C)cc3)cc2)c1Cl assay_endpoint="IC50 at 48 h" endpoint_value="< 6 µM"
record_smiles=Cc1nn(C)c(C(=O)NCc2ccc(Oc3ccc(Cl)cc3)cc2)c1Cl assay_endpoint="IC50 at 48 h" endpoint_value="< 6 µM"
record_smiles=CCc1nc(-c2ccc(CNC(=O)c3ccnn3C)cc2)no1 assay_endpoint="IC50 at 48 h" endpoint_value="< 6 µM"
record_smiles=Cc1nn(C)c(C(=O)NCc2ccc(Oc3ccc(Cl)nc3)cc2)c1Cl assay_endpoint="IC50 at 48 h" endpoint_value="< 6 µM"

What IC50 at 48 h value was documented for this compound, Cn1ncc(Cl)c1C(=O)NCc1ccc(Oc2ccc(Cl)cc2)cc1 ?
< 6 µM

What IC50 at 48 h value was documented for this compound, CCc1nc(-c2ccc(CNC(=O)c3c(Cl)c(CC)nn3C)cc2)no1 ?
< 6 µM

What IC50 at 48 h value was documented for this compound, CCc1nn(C)c(C(=O)NCc2ccc(Oc3ccc(Cl)cc3)cc2)c1Cl ?
< 6 µM

What IC50 at 48 h value was documented for this compound, Cn1ncc(Cl)c1C(=O)NCc1ccc(-c2noc(C3CC3)n2)cc1 ?
< 6 µM

* * *

assay: Toxicity in human MCF-10A cells; assay type: cell-based
assay_endpoint: IC50 (µM)
Numbers only; they are read as µM.

Here's what some known entries look like.
molecule=Cn1ncc(Cl)c1C(=O)NCc1ccc(-c2noc(C3CC3)n2)cc1 endpoint_value=24.3
molecule="CCc1nn(C)c(C(=O)NCc2ccc(Oc3ccc(C)cc3)cc2)c1Cl [TOLFENPYRAD]" endpoint_value=33.7
molecule=CCc1nn(C)c(C(=O)NCc2ccc(Oc3ccc(Cl)cc3)cc2)c1Cl endpoint_value=8.7
molecule=Cc1ccc(Oc2ccc(CNC(=O)c3c(F)cnn3C)cc2)cc1 endpoint_value=13.7

What IC50 value was documented for this molecule, Cc1nn(C)c(C(=O)NCc2ccc(Oc3ccc(Cl)cc3)cc2)c1Cl ?
50

* * *

assay: Toxicity in rat FAO cells assessed as reduction in cellular respiration incubated over 1 hrs by extracellular flux analyzer based assay; assay type: cell-based
Each record here notes measured IC50 at 1 h.
Numbers only; they are read as µM.

What IC50 at 1 h value was documented for this molecule, CCc1nc(-c2ccc(CNC(=O)c3c(Cl)c(CC)nn3C)cc2)no1 ?
0.16

What IC50 at 1 h value was documented for this molecule, CCc1nn(C)c(C(=O)NCc2ccc(Oc3ccc(C)cc3)cc2)c1Cl [TOLFENPYRAD] ?
1.1

What IC50 at 1 h value was documented for this molecule, Cn1ncc(Cl)c1C(=O)NCc1ccc(Oc2ccc(Cl)cc2)cc1 ?
1.7

What IC50 at 1 h value was documented for this molecule, CCc1nc(-c2ccc(CNC(=O)c3ccnn3C)cc2)no1 ?
1.3

What IC50 at 1 h value was documented for this molecule, Cc1nn(C)c(C(=O)NCc2ccc(Oc3ccc(Cl)cc3)cc2)c1Cl ?
1.27

What IC50 at 1 h value was documented for this molecule, Cn1ncc(Cl)c1C(=O)NCc1ccc(-c2noc(C3CC3)n2)cc1 ?
3.73

What IC50 at 1 h value was documented for this molecule, Cc1nn(C)c(C(=O)NCc2ccc(Oc3ccc(Cl)nc3)cc2)c1Cl ?
0.15

What IC50 at 1 h value was documented for this molecule, Cn1ncc(Cl)c1C(=O)NCc1ccc(Oc2ccc(Cl)nc2)cc1 ?
1.9

What IC50 at 1 h value was documented for this molecule, Cc1ccc(Oc2ccc(CNC(=O)c3c(F)cnn3C)cc2)cc1 ?
4.3

What IC50 at 1 h value was documented for this molecule, CCc1nn(C)c(C(=O)NCc2ccc(Oc3ccc(Cl)cc3)cc2)c1Cl ?
0.51
